TARGET OF ASSAY: T1, human high affinity trimeric IL-2 receptor (CD25/CD122/CD132) (human, UniProt P01589 22-272; P14784 27-551; P31785 23-369)
T1 sequence 1: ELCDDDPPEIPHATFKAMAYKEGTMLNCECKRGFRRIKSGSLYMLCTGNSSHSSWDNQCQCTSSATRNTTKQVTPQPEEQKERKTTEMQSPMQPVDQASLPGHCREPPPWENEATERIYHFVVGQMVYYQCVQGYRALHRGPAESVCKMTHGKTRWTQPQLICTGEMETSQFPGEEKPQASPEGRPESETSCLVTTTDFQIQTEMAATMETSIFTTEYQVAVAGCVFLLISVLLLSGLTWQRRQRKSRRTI
T1 sequence 2: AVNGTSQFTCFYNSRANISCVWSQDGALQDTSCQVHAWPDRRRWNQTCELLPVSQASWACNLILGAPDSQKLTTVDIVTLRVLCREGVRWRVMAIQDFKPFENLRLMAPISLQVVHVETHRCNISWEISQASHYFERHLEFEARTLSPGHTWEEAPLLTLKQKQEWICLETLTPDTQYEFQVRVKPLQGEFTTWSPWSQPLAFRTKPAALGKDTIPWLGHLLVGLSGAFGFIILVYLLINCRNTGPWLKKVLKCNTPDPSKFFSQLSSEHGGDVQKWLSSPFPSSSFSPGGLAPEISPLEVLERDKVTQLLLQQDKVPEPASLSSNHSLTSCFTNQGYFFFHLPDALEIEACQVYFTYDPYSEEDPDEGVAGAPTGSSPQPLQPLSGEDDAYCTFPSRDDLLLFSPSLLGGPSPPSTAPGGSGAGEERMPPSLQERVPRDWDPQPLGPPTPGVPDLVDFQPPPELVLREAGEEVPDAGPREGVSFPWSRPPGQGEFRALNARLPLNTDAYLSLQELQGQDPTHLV
T1 sequence 3: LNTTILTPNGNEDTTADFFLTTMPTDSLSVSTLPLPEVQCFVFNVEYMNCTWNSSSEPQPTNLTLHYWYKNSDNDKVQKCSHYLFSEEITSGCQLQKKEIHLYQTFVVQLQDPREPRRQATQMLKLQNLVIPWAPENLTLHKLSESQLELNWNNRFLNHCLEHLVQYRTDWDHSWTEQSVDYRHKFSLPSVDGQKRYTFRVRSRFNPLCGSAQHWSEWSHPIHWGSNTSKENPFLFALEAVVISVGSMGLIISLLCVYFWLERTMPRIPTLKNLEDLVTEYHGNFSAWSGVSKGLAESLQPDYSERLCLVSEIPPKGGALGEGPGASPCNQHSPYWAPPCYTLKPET
ASSAY PROCEDURE: cell-based or functional assay
MEASURED ENDPOINT: pSTAT5 ratio YT CD25/YT, dilution factor 8, upper table

Completed entries (count: 3):
# BINDER, ENDPOINT VALUE
data = [
    ("WEH (ligand) cytokine: APTSSSTKKTQLQLEHLWLDLEMILNGINNYKNPKLTRMLTFKFYMPKKATELKHLQCLEEELKPLEEVLNLAQSKNFHLRPRDLISNINVIVLELKGSETTFMCEYADETATIVEFLNRWITFCHSIISTLT", 1.5),
    ("GEH (ligand) cytokine: APTSSSTKKTQLQLEHLGLDLEMILNGINNYKNPKLTRMLTFKFYMPKKATELKHLQCLEEELKPLEEVLNLAQSKNFHLRPRDLISNINVIVLELKGSETTFMCEYADETATIVEFLNRWITFCHSIISTLT", 7.2),
    ("hIL2 mutein REE (L18R, Q22E, Q126E) (ligand) APTSSSTKKTQLQLEHLRLDLEMILNGINNYKNPKLTRMLTFKFYMPKKATELKHLQCLEEELKPLEEVLNLAQSKNFHLRPRDLISNINVIVLELKGSETTFMCEYADETATIVEFLNRWITFCESIISTLT", 5.9),
]

(a) hIL2 mutein REH (L18R, Q22E, Q126H) (ligand) APTSSSTKKTQLQLEHLRLDLEMILNGINNYKNPKLTRMLTFKFYMPKKATELKHLQCLEEELKPLEEVLNLAQSKNFHLRPRDLISNINVIVLELKGSETTFMCEYADETATIVEFLNRWITFCHSIISTLT
(b) AEH (ligand) cytokine: APTSSSTKKTQLQLEHLALDLEMILNGINNYKNPKLTRMLTFKFYMPKKATELKHLQCLEEELKPLEEVLNLAQSKNFHLRPRDLISNINVIVLELKGSETTFMCEYADETATIVEFLNRWITFCHSIISTLT
(c) hIL2 mutein REK (L18R, Q22E, Q126K) (ligand) APTSSSTKKTQLQLEHLRLDLEMILNGINNYKNPKLTRMLTFKFYMPKKATELKHLQCLEEELKPLEEVLNLAQSKNFHLRPRDLISNINVIVLELKGSETTFMCEYADETATIVEFLNRWITFCKSIISTLT
Given 3 binders, produce a descending ranking by pSTAT5 ratio YT CD25/YT, dilution factor 8, upper table. Present the labels in the sequence the task asks for.
b, c, a

(P) IEH (ligand) cytokine: APTSSSTKKTQLQLEHLILDLEMILNGINNYKNPKLTRMLTFKFYMPKKATELKHLQCLEEELKPLEEVLNLAQSKNFHLRPRDLISNINVIVLELKGSETTFMCEYADETATIVEFLNRWITFCHSIISTLT
(Q) EEH (ligand) cytokine: APTSSSTKKTQLQLEHLELDLEMILNGINNYKNPKLTRMLTFKFYMPKKATELKHLQCLEEELKPLEEVLNLAQSKNFHLRPRDLISNINVIVLELKGSETTFMCEYADETATIVEFLNRWITFCHSIISTLT
I'm curious whether P or Q has the smaller pSTAT5 ratio YT CD25/YT, dilution factor 8, upper table number. Which is it? API: response body contains the label of the selected item.
P
(P: 1.6, Q: 4.8)
